Quick list: logD per entry.
# assay.procedure: physchem
# test.settings: 1-octanol/PBS buffer, pH 7.4

compound: CCS(=O)(=O)c1ccc(CC(=O)Nc2ccc(-c3cccc(Cl)c3)cc2)cc1
logD: > 4
//
compound: CCS(=O)(=O)c1ccc(C(NC(=O)c2ccccc2)C(=O)Nc2ccc(C(O)(C(F)(F)F)C(F)(F)F)cc2)cc1 (configuration not stated)
logD: > 4
//
compound: CCS(=O)(=O)c1ccc(C(NC(=O)CC(C)C)C(=O)Nc2ccc(C(O)(C(F)(F)F)C(F)(F)F)cc2)cc1 (configuration not stated)
logD: > 4
//
compound: CCS(=O)(=O)c1ccc(C(NC(=O)CCc2ccccc2)C(=O)Nc2ccc(C(O)(C(F)(F)F)C(F)(F)F)cc2)cc1 (configuration not stated)
logD: > 4
//
compound: CCS(=O)(=O)c1ccc(CC(=O)Nc2cccc(-c3cccc(Cl)c3)c2)cc1
logD: > 4
//
compound: CCS(=O)(=O)c1ccc(C(NC(=O)CC(C)(C)O)C(=O)Nc2ccc(C(O)(C(F)(F)F)C(F)(F)F)cc2)cc1 (configuration not stated)
logD: 3.3
//
compound: CCS(=O)(=O)c1ccc(CC(=O)Nc2cc(-c3cccc(Cl)c3)cs2)cc1
logD: > 4.1
